Measured values drawn from paper PMC9482650 for this set.

Molecular target: PTPN3, P26045
Sequence (P26045 505-587): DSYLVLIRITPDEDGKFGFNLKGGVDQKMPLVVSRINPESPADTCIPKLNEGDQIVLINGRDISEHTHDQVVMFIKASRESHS
Experiment: holdup assay
Design: key: below the threshold = too weak to quantify, mostly under pKd 3.1 to 4
Settings: plain residues with an end cap or a label only (N-terminal biotin on a linker: ado-ado)
Recorded pKd for the following binders
Provide a numeric answer; units are not to be included.

See these solved cases before continuing.
# BINDER, pKd
measured = [
    ("EEPEERHTEL [CES2, O00748]", 4.94),
    ("QKNKDKEYYV [NRXN3_rs746444206, Q9Y4C0]", 4.28),
    ("FVHPILQSAV [PRKCA, P17252]", 4.59),
]

Input line: // returns reported pKd for input TETASVCTKV [SLC23A1, Q9UHI7]
Output line: 3.97

Input line: // returns reported pKd for input GFGEERESIL [KIDINS220, Q9ULH0]
Output line: 5.22
